Test system: PSMA-expressing LNCaP cancer xenografts
measurementSetup: mouse, in vivo
outcomeMeasure: Tumor: Kidney ratio
Hey, just send me the number, nothing else.

compound | targetDesc | experimentalValue
O=C(O)CCC[C@H](NC(=O)N[C@@H](CCCCNC(=O)[C@H](Cc1cccc(I)c1)NC(=O)[C@H]1CC[C@H](CNC(=O)CN2CCN(CC(=O)O)CCN(CC(=O)O)CCN(CC(=O)O)CC2)CC1)C(=O)O)C(=O)O [68Ga-HTK04053, metal not drawn] | PSMA-expressing LNCaP cancer xenografts | 1.84

Query: Requested read-out: Tumor: Kidney ratio. Entry: O=C(O)CN1CCN(CC(=O)O)CCN(CC(=O)NC[C@H]2CC[C@H](C(=O)N[C@@H](Cc3c4ccccc4cc4ccccc34)C(=O)NCCCC[C@H](NC(=O)N[C@@H](C[C@H](F)C(=O)O)C(=O)O)C(=O)O)CC2)CCN(CC(=O)O)CC1 [68Ga-HTK04040, metal not drawn]
Result: 0.26
